The molecules listed here are annotated with their log10 IC50.
Test system: HT29
Assay: cells
Type: cell-based
Details: Homo sapiens, HT-29, 2 h, read-out: 2 hr N2 HT29 IC50
result.type: log10 IC50 (log10 of the value in µM)

molecule="Nc1ncccc1CC(c1ccsc1[N+](=O)[O-])S(=O)(=O)Oc1ccc(N(CCCl)CCCl)cc1.O=C(O)C(F)(F)F (centres unmarked) [TH-1374]" result_type="log10 IC50" measurement=1.45
molecule="O=[N+]([O-])c1sccc1C(CCS(=O)(=O)CCO)S(=O)(=O)Oc1ccc(N(CCCl)CCCl)cc1 (centres unmarked) [TH-1388]" result_type="log10 IC50" measurement=1.15
molecule="O=[N+]([O-])c1sccc1C(Cc1cnc(O)c(Cl)c1)S(=O)(=O)Oc1ccc(N(CCCl)CCCl)cc1 (centres unmarked) [TH-1393]" result_type="log10 IC50" measurement=2.04
molecule="O=C(CO)Nc1ncccc1CC(c1ccsc1[N+](=O)[O-])S(=O)(=O)Oc1ccc(N(CCCl)CCCl)cc1 (centres unmarked) [TH-1384]" result_type="log10 IC50" measurement=1.23
molecule="CC(=O)Nc1ncccc1CC(c1ccsc1[N+](=O)[O-])S(=O)(=O)Oc1ccc(N(CCCl)CCCl)cc1 (centres unmarked) [TH-1375]" result_type="log10 IC50" measurement=1.23
molecule="CC(=O)Nc1ccc(CC(c2ccsc2[N+](=O)[O-])S(=O)(=O)Oc2ccc(N(CCCl)CCCl)cc2)cn1 (centres unmarked) [TH-1271]" result_type="log10 IC50" measurement=2.88
molecule="CC(=O)Nc1ccc(CC(c2ccsc2[N+](=O)[O-])S(=O)(=O)Oc2ccc(N(CCCl)CCCl)cc2)cc1 (centres unmarked) [TH-1346]" result_type="log10 IC50" measurement=1.66
molecule="O=[N+]([O-])c1sccc1C(CCS(=O)(=O)Oc1ccccc1)S(=O)(=O)Oc1ccc(N(CCCl)CCCl)cc1 (centres unmarked) [TH-1292]" result_type="log10 IC50" measurement=0.68
molecule="O=C(CO)Nc1cccc(OS(=O)(=O)CCC(c2ccsc2[N+](=O)[O-])S(=O)(=O)Oc2ccc(N(CCCl)CCCl)cc2)c1 (centres unmarked) [TH-1414]" result_type="log10 IC50" measurement=2.00
molecule="CNc1ccc(CC(c2ccsc2[N+](=O)[O-])S(=O)(=O)Oc2ccc(N(CCCl)CCCl)cc2)cn1 (centres unmarked) [TH-1442]" result_type="log10 IC50" measurement=0.54
molecule="Nc1ccc(CC(c2ccsc2[N+](=O)[O-])S(=O)(=O)Oc2ccc(N(CCCl)CCCl)cc2)cc1.O=C(O)C(F)(F)F (centres unmarked) [TH-1330]" result_type="log10 IC50" measurement=0.95

Values were extracted from patent US8309554B2.
